Where these numbers come from: patent US9040727B2

# Method Summary: Preliminary pharmacokinetic experiment
# Study Conditions: rat, in vivo; oral; read-out: Oral half-life (converted)
Measurement Type: half-life (h)

a. Nc1ccc(F)cc1NC(=O)c1ccc(CNC(=O)c2cc3ccccc3o2)cc1
b. Nc1ccccc1NC(=O)c1ccc(CNC(=O)c2cc3ccccc3[nH]2)cc1
Record comparison, field half-life: mark the lower of a and b . Respond with the label that goes with your answer.
b

----------
Entries annotated with measured inhibition at 10 µM
# Target Under Test: hERG potassium channel (Homo sapiens (Human), UniProt Q12809)
# Sequence (Q12809 whole entry): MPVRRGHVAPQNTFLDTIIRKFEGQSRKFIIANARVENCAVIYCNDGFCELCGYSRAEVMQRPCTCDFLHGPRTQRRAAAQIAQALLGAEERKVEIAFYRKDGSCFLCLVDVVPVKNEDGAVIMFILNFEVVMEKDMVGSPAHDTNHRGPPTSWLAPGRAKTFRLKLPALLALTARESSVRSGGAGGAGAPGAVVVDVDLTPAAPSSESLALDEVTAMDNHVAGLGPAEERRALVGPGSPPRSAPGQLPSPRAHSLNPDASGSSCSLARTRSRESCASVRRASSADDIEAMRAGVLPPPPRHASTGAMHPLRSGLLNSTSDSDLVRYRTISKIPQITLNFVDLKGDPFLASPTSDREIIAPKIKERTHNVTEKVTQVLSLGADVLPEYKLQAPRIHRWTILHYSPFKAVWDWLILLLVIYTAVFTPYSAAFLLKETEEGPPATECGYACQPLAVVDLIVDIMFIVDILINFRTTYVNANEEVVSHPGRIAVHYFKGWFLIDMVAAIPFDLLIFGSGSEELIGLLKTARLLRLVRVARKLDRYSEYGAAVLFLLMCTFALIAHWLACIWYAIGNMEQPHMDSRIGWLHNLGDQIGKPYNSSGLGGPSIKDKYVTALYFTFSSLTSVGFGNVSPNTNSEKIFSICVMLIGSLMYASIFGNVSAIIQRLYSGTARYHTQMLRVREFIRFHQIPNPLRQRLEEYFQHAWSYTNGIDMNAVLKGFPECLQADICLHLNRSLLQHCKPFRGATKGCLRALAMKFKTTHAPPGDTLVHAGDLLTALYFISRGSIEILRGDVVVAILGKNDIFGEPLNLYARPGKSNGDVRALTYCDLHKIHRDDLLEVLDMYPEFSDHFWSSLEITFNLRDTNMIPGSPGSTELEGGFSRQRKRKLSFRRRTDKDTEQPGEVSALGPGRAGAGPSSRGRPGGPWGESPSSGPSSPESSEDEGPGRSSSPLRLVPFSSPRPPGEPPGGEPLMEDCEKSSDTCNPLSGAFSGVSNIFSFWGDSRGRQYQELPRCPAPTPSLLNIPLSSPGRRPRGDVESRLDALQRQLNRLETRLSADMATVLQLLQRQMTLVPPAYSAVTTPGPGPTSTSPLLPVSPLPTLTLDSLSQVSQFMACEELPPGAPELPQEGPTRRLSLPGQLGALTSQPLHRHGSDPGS
# Method Summary: Effects on hERG potassium channel
# Format: cell-based
# Study Conditions: human; hERG potassium current, 10 μM; read-out: Maximum inhibition percentage at 10 μM
Write the number in % without appending the unit.

Nc1ccc(F)cc1NC(=O)c1ccc(CNC(=O)c2cc3ccccc3o2)cc1 [Compound V-9]; 19.9

# input for lookup
Kindly note: hERG potassium channel (Homo sapiens (Human), UniProt Q12809), Nc1ccccc1NC(=O)c1ccc(CNC(=O)c2cc3ccccc3[nH]2)cc1 [Compound V-5] , inhibition at 10 µM value reported: 11.5

----------
# System: A549 human lung cancer cells
# Method Summary: In vitro anti-proliferative effect, CCK-8 method
# Type: cell-based
Measurement Type: pIC50
The scale used: pIC50 is minus the common logarithm of the concentration in molar units.

Reported pIC50 for Nc1ccccc1NC(=O)c1ccc(CNC(=O)OCc2cccnc2)cc1 [MS-275, reference compound] was 5.64

----------
# Tested on: Colo320 human rectal cancer cell line
# Method Summary: In vitro anti-proliferative effect, CCK-8 method
# Type: cell-based
Measurement Type: pIC50
For clarity, pIC50 is expressed as the negative log10 of concentration in mol/L.

Per the records, this compound ( Nc1ccccc1NC(=O)c1ccc(CNC(=O)OCc2cccnc2)cc1 [MS-275, reference compound] ) has pIC50 equal to 6.28

----------
# Target Under Test: hERG potassium channel (Homo sapiens (Human), UniProt Q12809)
# Method Summary: Effects on hERG potassium channel
# Study Conditions: read-out: Half inhibition concentration for the effect on hERG potassium current IC50
pIC50: −log10 of the molar value.
Measurement Type: pIC50

Nc1ccccc1NC(=O)c1ccc(CNC(=O)c2cc3ccccc3[nH]2)cc1 [Compound V-5]; < 5.00

Entry Nc1ccc(F)cc1NC(=O)c1ccc(CNC(=O)c2cc3ccccc3o2)cc1 [Compound V-9] , hERG potassium channel (Homo sapiens (Human), UniProt Q12809) data, pIC50 value: < 5.00

----------
# Target Under Test: UniProt Q13547
Measurement Type: IC50 (nM)

CC(=O)c1ccc2[nH]c(C(=O)NCc3ccc(C(=O)Nc4ccccc4N)cc3)cc2c1; 509
Nc1cnccc1NC(=O)c1ccc(CNC(=O)c2cc3ccccc3s2)cc1; 731
CC(=O)Nc1ccc2[nH]c(C(=O)NCc3ccc(C(=O)Nc4ccccc4N)cc3)cc2c1; 301

I. COc1c(C(=O)NCc2ccc(C(=O)Nc3ccccc3N)cc2)oc2ccccc12
II. Cc1ccc2[nH]c(C(=O)NCc3ccc(C(=O)Nc4ccccc4N)cc3)cc2c1
Larger number for IC50: I , or II ? Answer = label.
I

----------
# Target Under Test: HDAC1 (Homo sapiens (Human), UniProt Q13547)
# Sequence (Q13547 whole entry): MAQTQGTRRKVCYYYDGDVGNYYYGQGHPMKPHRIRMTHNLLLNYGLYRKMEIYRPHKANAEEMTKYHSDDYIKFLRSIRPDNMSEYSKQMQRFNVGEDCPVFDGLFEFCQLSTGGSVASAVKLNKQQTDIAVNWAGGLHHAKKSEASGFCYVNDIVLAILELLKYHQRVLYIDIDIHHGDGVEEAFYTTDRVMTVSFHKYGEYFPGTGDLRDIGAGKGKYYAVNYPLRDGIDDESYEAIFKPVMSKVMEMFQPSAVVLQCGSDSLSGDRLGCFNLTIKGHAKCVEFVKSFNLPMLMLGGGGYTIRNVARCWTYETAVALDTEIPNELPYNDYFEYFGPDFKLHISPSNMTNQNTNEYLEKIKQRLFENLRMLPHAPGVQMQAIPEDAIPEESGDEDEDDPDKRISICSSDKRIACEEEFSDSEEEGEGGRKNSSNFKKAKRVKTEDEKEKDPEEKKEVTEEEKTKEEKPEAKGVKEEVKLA
# Method Summary: In vitro inhibitory activity towards HDAC1 (HDAC Inhibitor Drug Screening Kit)
# Format: biochemical
# Study Conditions: compound at 10 μM
Measurement Type: inhibition at 10 µM (%)

Nc1ccc(F)cc1NC(=O)c1ccc(CNC(=O)c2cc3ccccc3o2)cc1 [Compound V-9]; 69.1
COc1c(C(=O)NCc2ccc(C(=O)Nc3ccccc3N)cc2)oc2ccccc12 [Compound V-21]; 68.8
CC(=O)c1ccc2[nH]c(C(=O)NCc3ccc(C(=O)Nc4ccccc4N)cc3)cc2c1 [Compound V-26]; 70.8
